system: Escherichia coli TOP10; test: shrunken log2 fold change of peptide-encoding DNA abundance (4.5 h post-induction vs induction); higher = less antimicrobial activity (less host growth inhibition); conditions: time post-induction: 4.5 h; library: site-saturation at positions 5, 18, 19, 20

SEQUENCE CHAIN	shrunken log2 fold change
RRIRGRPPRLPRPRPRPFHAPRP	-0.13
RRIRGRPPRLPRPRPRPLPIPRP	0.0433
RRIRIRPPRLPRPRPRPCTVPRP	-0.337
RRIRHRPPRLPRPRPRPCLGPRP	0.0158
RRIRWRPPRLPRPRPRPEAGPRP	0.877
RRIRARPPRLPRPRPRPTAKPRP	1.36
RRIRGRPPRLPRPRPRPYFWPRP	0.0833
RRIRHRPPRLPRPRPRPFPTPRP	-0.0427
RRIRCRPPRLPRPRPRPHNVPRP	-0.194
RRIRGRPPRLPRPRPRPFHIPRP	-0.14
RRIRHRPPRLPRPRPRPWMRPRP	0.101
RRIRIRPPRLPRPRPRPSRDPRP	-0.0607
RRIRQRPPRLPRPRPRPTMKPRP	-0.314
RRIRCRPPRLPRPRPRPQHEPRP	0.0354
RRIRPRPPRLPRPRPRPPVLPRP	-0.0339
RRIRRRPPRLPRPRPRPTTAPRP	0.541
RRIRDRPPRLPRPRPRPRMCPRP	0.0171
RRIRARPPRLPRPRPRPVGFPRP	0.516

---

test system: Escherichia coli TOP10; test: shrunken log2 fold change of peptide-encoding DNA abundance (4.5 h post-induction vs induction); higher = less antimicrobial activity (less host growth inhibition); conditions: time post-induction: 4.5 h; library: site-saturation at positions 5, 18, 19, 20
In this section, each of the sequences is paired with its reported shrunken log2 fold change.
PROPERTY LABEL: shrunken log2 fold change

SEQUENCE CHAIN	PROPERTY LABEL	VAL
RRIRTRPPRLPRPRPRPKIIPRP	shrunken log2 fold change	-0.211
RRIRSRPPRLPRPRPRPTLWPRP	shrunken log2 fold change	0.448
RRIRARPPRLPRPRPRPNMAPRP	shrunken log2 fold change	0.114
RRIRHRPPRLPRPRPRPLPLPRP	shrunken log2 fold change	0.0701
RRIRSRPPRLPRPRPRPWYVPRP	shrunken log2 fold change	-0.36
RRIRFRPPRLPRPRPRPPNCPRP	shrunken log2 fold change	-0.159
RRIRPRPPRLPRPRPRPGNNPRP	shrunken log2 fold change	-0.103
RRIRYRPPRLPRPRPRPKKNPRP	shrunken log2 fold change	-0.231
RRIRYRPPRLPRPRPRPAVHPRP	shrunken log2 fold change	-0.0328
RRIRDRPPRLPRPRPRPNASPRP	shrunken log2 fold change	0.527
RRIRMRPPRLPRPRPRPRHDPRP	shrunken log2 fold change	0.659
RRIRARPPRLPRPRPRPKVTPRP	shrunken log2 fold change	0.0237
RRIRTRPPRLPRPRPRPINQPRP	shrunken log2 fold change	-0.274
RRIRARPPRLPRPRPRPVCHPRP	shrunken log2 fold change	0.321
RRIRFRPPRLPRPRPRPINYPRP	shrunken log2 fold change	-0.0562
RRIRTRPPRLPRPRPRPDYPPRP	shrunken log2 fold change	0.0242
RRIRIRPPRLPRPRPRPPNRPRP	shrunken log2 fold change	-0.462
RRIRKRPPRLPRPRPRPWNKPRP	shrunken log2 fold change	-0.129
RRIRIRPPRLPRPRPRPQPGPRP	shrunken log2 fold change	0.116
RRIRSRPPRLPRPRPRPFDVPRP	shrunken log2 fold change	-0.151
RRIRERPPRLPRPRPRPSFVPRP	shrunken log2 fold change	-0.588
RRIRDRPPRLPRPRPRPVIMPRP	shrunken log2 fold change	-0.381
RRIRHRPPRLPRPRPRPHGHPRP	shrunken log2 fold change	0.219
RRIRNRPPRLPRPRPRPRCCPRP	shrunken log2 fold change	-0.247

---

In this section, each of the sequences is paired with its reported shrunken log2 fold change.
test system: Escherichia coli TOP10; assay: shrunken log2 fold change of peptide-encoding DNA abundance (4.5 h post-induction vs induction); higher = less antimicrobial activity (less host growth inhibition); conditions: time post-induction: 4.5 h; library: site-saturation at positions 5, 18, 19, 20
PROPERTY LABEL: shrunken log2 fold change

SEQUENCE CHAIN	VAL
RRIRLRPPRLPRPRPRPAWYPRP	0.0232
RRIRSRPPRLPRPRPRPVNMPRP	-0.103
RRIRKRPPRLPRPRPRPTVSPRP	0.099

---

test system: Escherichia coli TOP10; assay: shrunken log2 fold change of peptide-encoding DNA abundance (4.5 h post-induction vs induction); higher = less antimicrobial activity (less host growth inhibition); conditions: time post-induction: 4.5 h; library: site-saturation at positions 5, 18, 19, 20

SEQUENCE CHAIN	shrunken log2 fold change
RRIRWRPPRLPRPRPRPQGPPRP	1.32
RRIRTRPPRLPRPRPRPGLMPRP	0.0921
RRIRYRPPRLPRPRPRPVDWPRP	0.145
RRIRIRPPRLPRPRPRPVSFPRP	0.00232
RRIRIRPPRLPRPRPRPCIIPRP	-0.467
RRIRWRPPRLPRPRPRPYDNPRP	-0.263
RRIRVRPPRLPRPRPRPFDWPRP	-0.103
RRIRFRPPRLPRPRPRPKLDPRP	0.0288
RRIRGRPPRLPRPRPRPAWAPRP	0.854
RRIRYRPPRLPRPRPRPMFEPRP	-0.315
RRIRRRPPRLPRPRPRPVKIPRP	0.266
RRIRTRPPRLPRPRPRPNITPRP	-0.664
RRIRRRPPRLPRPRPRPGVIPRP	-0.0223
RRIRYRPPRLPRPRPRPHLVPRP	-0.0159
RRIRCRPPRLPRPRPRPCGEPRP	0.218
RRIRQRPPRLPRPRPRPHRCPRP	0.109
RRIRRRPPRLPRPRPRPVQNPRP	0.285
RRIRTRPPRLPRPRPRPVFAPRP	0.214
RRIRKRPPRLPRPRPRPDTSPRP	0.0236
RRIRPRPPRLPRPRPRPTLEPRP	0.393
RRIRERPPRLPRPRPRPWVMPRP	-0.32
RRIRLRPPRLPRPRPRPYWFPRP	-0.758
RRIRVRPPRLPRPRPRPHQTPRP	-0.443
RRIRDRPPRLPRPRPRPFIGPRP	-0.158
RRIRCRPPRLPRPRPRPVWRPRP	0.358
RRIRMRPPRLPRPRPRPEGMPRP	2.24
RRIRMRPPRLPRPRPRPTAKPRP	0.255
RRIRWRPPRLPRPRPRPIHTPRP	-0.275
RRIRLRPPRLPRPRPRPCRNPRP	-0.241
RRIRHRPPRLPRPRPRPWYYPRP	-1.47
RRIRHRPPRLPRPRPRPDYHPRP	-0.336
RRIRPRPPRLPRPRPRPPPHPRP	0.657
RRIRGRPPRLPRPRPRPVHHPRP	-0.0799
RRIRYRPPRLPRPRPRPHWPPRP	-0.322
RRIRTRPPRLPRPRPRPRKVPRP	-0.295
RRIRWRPPRLPRPRPRPGNGPRP	-0.0519
RRIRDRPPRLPRPRPRPSMLPRP	-0.244
RRIRWRPPRLPRPRPRPLKIPRP	-0.195
RRIRNRPPRLPRPRPRPMKDPRP	0.145
RRIRERPPRLPRPRPRPDFPPRP	0.00147
RRIRERPPRLPRPRPRPCNRPRP	-0.0134
RRIRYRPPRLPRPRPRPNQWPRP	0.00192
RRIRMRPPRLPRPRPRPCPFPRP	-0.241

---

system: Escherichia coli TOP10; assay: shrunken log2 fold change of peptide-encoding DNA abundance (4.5 h post-induction vs induction); higher = less antimicrobial activity (less host growth inhibition); settings: time post-induction: 4.5 h; library: site-saturation at positions 5, 18, 19, 20;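 also: peptides expressed intracellularly from a pBAD plasmid library in pooled LB shake-flask culture, induced with 0.3% L-arabinose, DNA abundance read by NGS, three biological replicates, DESeq2 with apeglm shrinkage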
In this section, each of the sequences is paired with its reported shrunken log2 fold change.
PROPERTY LABEL: shrunken log2 fold change

SEQUENCE CHAIN	TARGET	PROPERTY LABEL	VAL
RRIRLRPPRLPRPRPRPFAEPRP	Escherichia coli TOP10	shrunken log2 fold change	0.102
RRIRRRPPRLPRPRPRPAYIPRP	Escherichia coli TOP10	shrunken log2 fold change	-0.201
RRIRLRPPRLPRPRPRPAMIPRP	Escherichia coli TOP10	shrunken log2 fold change	-0.223
RRIRCRPPRLPRPRPRPSMLPRP	Escherichia coli TOP10	shrunken log2 fold change	-0.727
RRIRGRPPRLPRPRPRPTLMPRP	Escherichia coli TOP10	shrunken log2 fold change	0.815
RRIRCRPPRLPRPRPRPFVMPRP	Escherichia coli TOP10	shrunken log2 fold change	-0.153
RRIRIRPPRLPRPRPRPIHWPRP	Escherichia coli TOP10	shrunken log2 fold change	-0.0782
RRIRLRPPRLPRPRPRPEDAPRP	Escherichia coli TOP10	shrunken log2 fold change	0.368
RRIRSRPPRLPRPRPRPHSCPRP	Escherichia coli TOP10	shrunken log2 fold change	-0.0203
RRIRWRPPRLPRPRPRPAWPPRP	Escherichia coli TOP10	shrunken log2 fold change	0.558
RRIRQRPPRLPRPRPRPKKVPRP	Escherichia coli TOP10	shrunken log2 fold change	-0.0514
RRIRGRPPRLPRPRPRPMYGPRP	Escherichia coli TOP10	shrunken log2 fold change	-0.107
RRIRVRPPRLPRPRPRPILVPRP	Escherichia coli TOP10	shrunken log2 fold change	-0.00597
RRIRTRPPRLPRPRPRPVYVPRP	Escherichia coli TOP10	shrunken log2 fold change	-0.62
RRIRWRPPRLPRPRPRPTLNPRP	Escherichia coli TOP10	shrunken log2 fold change	0.139
RRIRERPPRLPRPRPRPNLEPRP	Escherichia coli TOP10	shrunken log2 fold change	-0.228
RRIRIRPPRLPRPRPRPYYFPRP	Escherichia coli TOP10	shrunken log2 fold change	-1.16
RRIRARPPRLPRPRPRPWKIPRP	Escherichia coli TOP10	shrunken log2 fold change	-0.117
RRIRIRPPRLPRPRPRPAIFPRP	Escherichia coli TOP10	shrunken log2 fold change	-0.102
RRIRKRPPRLPRPRPRPCSNPRP	Escherichia coli TOP10	shrunken log2 fold change	-0.0227
RRIRQRPPRLPRPRPRPSRFPRP	Escherichia coli TOP10	shrunken log2 fold change	3.97
RRIRRRPPRLPRPRPRPCKAPRP	Escherichia coli TOP10	shrunken log2 fold change	0.122
RRIRMRPPRLPRPRPRPAHRPRP	Escherichia coli TOP10	shrunken log2 fold change	0.444
RRIRVRPPRLPRPRPRPLWLPRP	Escherichia coli TOP10	shrunken log2 fold change	-0.00434
RRIRERPPRLPRPRPRPINIPRP	Escherichia coli TOP10	shrunken log2 fold change	-0.973
RRIRQRPPRLPRPRPRPHGKPRP	Escherichia coli TOP10	shrunken log2 fold change	-0.352
RRIRDRPPRLPRPRPRPANNPRP	Escherichia coli TOP10	shrunken log2 fold change	-0.218
